Listing of recorded TGI by entry.
- Test system: UACC-257 melanoma
- Measurement Notes: NCI tumour cell line growth inhibition, 48 h
Assay Endpoint: TGI

- Compound: "O=C(Nc1ccc(F)cc1)c1ccc(NC2=C(Cl)C(=O)N(Cc3ccccc3)C2=O)cc1"
  Assay Endpoint: "TGI"
  Reported Value: "56 µM"
- Compound: "C=C(CCCCCCCCC)CC(=O)SCCNC(=O)CCNC(=O)C(O)C(C)(C)COP(=O)(O)OP(=O)(O)OCC1OC(n2cnc3c(N)ncnc32)C(O)C1OP(=O)(O)O (stereo unspecified)"
  Assay Endpoint: "TGI"
  Reported Value: "> 100 µM"
- Compound: "CC(=O)Nc1ccc(C(=O)NN2C(=O)C(Cl)C2c2ccc([N+](=O)[O-])cc2)cc1 (stereo unspecified)"
  Assay Endpoint: "TGI"
  Reported Value: "> 100 µM"
- Compound: "C(=C\\c1cccc(/C=C/c2ccccn2)n1)/c1ccccn1"
  Assay Endpoint: "TGI"
  Reported Value: "> 100 µM"
- Compound: "CC(=O)N[C@@H]1C(O)CN2C(=O)C(=O)O[C@H](C(O)CO)[C@@H]12 (stereo partly specified)"
  Assay Endpoint: "TGI"
  Reported Value: "> 100 µM"
- Compound: "Clc1ccc(Cc2nc3ccccc3s2)c(Cl)c1"
  Assay Endpoint: "TGI"
  Reported Value: "34.8 µM"
- Compound: "C/C=C\\C(CC(=O)NCCc1cn(C(=O)OCc2ccccc2)c2ccccc12)CC(=O)OC (stereo unspecified)"
  Assay Endpoint: "TGI"
  Reported Value: "> 100 µM"
- Compound: "COc1ccc(C2SCC(=O)N2NC(=O)C(O)c2ccccc2)cc1OC (stereo unspecified)"
  Assay Endpoint: "TGI"
  Reported Value: "> 100 µM"
- Compound: "CC1(C)C(=O)C(C)(C)C1=NN"
  Assay Endpoint: "TGI"
  Reported Value: "> 100 µM"
- Compound: "C=CC1[C@H]2COC(C)(C)O[C@@H]2CC(=O)C1(C)C (stereo partly specified)"
  Assay Endpoint: "TGI"
  Reported Value: "> 100 µM"
- Compound: "CC(=O)O[C@@H]1C[C@@]23C[C@@]24CC[C@H](OC2OCC(O)C(O)C2O)C(C)(C)[C@@H]4CC=C3[C@]2(C)C[C@@H]3OC4(C[C@@H](C)[C@@H]3[C@@]12C)OC(O)[C@@]1(C)O[C@@H]41 (stereo partly specified)"
  Assay Endpoint: "TGI"
  Reported Value: "67 µM"
- Compound: "COC(=O)C(C(=O)C(=O)Nc1ccc(C(F)(F)F)cc1[N+](=O)[O-])c1csc(-n2nc(-c3ccccc3)cc2-c2ccccc2)n1 (stereo unspecified)"
  Assay Endpoint: "TGI"
  Reported Value: "> 100 µM"
- Compound: "CCNc1ccc2c(c1)Cc1ccccc1-2"
  Assay Endpoint: "TGI"
  Reported Value: "> 100 µM"
- Compound: "c1ccc(CCN2CCc3[nH]c4ccccc4c3C2)cc1"
  Assay Endpoint: "TGI"
  Reported Value: "30.4 µM"
- Compound: "C/C(=N\\NC(=S)N1CCCCC1)c1cccc(C)n1"
  Assay Endpoint: "TGI"
  Reported Value: "12.1 µM"
- Compound: "COc1ccc(-c2oc3c(OC)c(OC)c(OC)c(O)c3c(=O)c2OC)cc1OC"
  Assay Endpoint: "TGI"
  Reported Value: "> 100 µM"
- Compound: "N#Cc1nc(CCCCCN2C(=O)c3ccccc3C2=O)oc1N"
  Assay Endpoint: "TGI"
  Reported Value: "> 100 µM"
- Compound: "COc1nc(N(C)C)nc2c1n(C)c[n+]2C"
  Assay Endpoint: "TGI"
  Reported Value: "> 100 µM"
- Compound: "CCOC(=O)C(=[N+]=[N-])C(=O)Nc1nn2nnnc2c2ccccc12"
  Assay Endpoint: "TGI"
  Reported Value: "> 100 µM"
- Compound: "Cc1c(S(C)(=O)=O)c(-c2cc(F)cc(N3CCN(c4ccc(NS(=O)(=O)c5ccc(N[C@H](CCN6CCC(C(=O)OCCCP(=O)(O)O)CC6)CSc6ccccc6)c(S(=O)(=O)C(F)(F)F)c5)cc4)CC3)c2)c(-c2ccc(Cl)cc2)n1C(C)C"
  Assay Endpoint: "TGI"
  Reported Value: "> 100 µM"
- Compound: "N#CC(C#N)=C1C(C#N)=C(N)NC12OCCO2"
  Assay Endpoint: "TGI"
  Reported Value: "> 100 µM"
- Compound: "O=CC(O)C(O)C(O)C(O)C(=O)NCCCCCCCCCCCCNC(=O)C(O)C(O)C(O)C(O)C=O (stereo unspecified)"
  Assay Endpoint: "TGI"
  Reported Value: "> 100 µM"
- Compound: "O=C([CH-]C(=O)c1ccccc1)c1ccccc1.O=C([CH-]C(=O)c1ccccc1)c1ccccc1.O=C([CH-]C(=O)c1ccccc1)c1ccccc1.[Nd+3].[OH3+]"
  Assay Endpoint: "TGI"
  Reported Value: "24.6 µM"
- Compound: "N=C1N(S(=O)(=O)c2ccccc2)[C@@H](Cc2ccccc2)[C@H](c2ccccc2)C1(c1ccccc1)c1ccccc1"
  Assay Endpoint: "TGI"
  Reported Value: "> 100 µM"
- Compound: "Oc1ccc(C(c2ccc(O)cc2)c2ccc(Cl)cn2)cc1"
  Assay Endpoint: "TGI"
  Reported Value: "> 100 µM"
- Compound: "COc1ccccc1/C=C/[N+](=O)[O-]"
  Assay Endpoint: "TGI"
  Reported Value: "4.32 µM"
- Compound: "CCOC(=O)C1(C(=O)OCC)[C@H](c2ccccc2)C2=NO[C@@H]3CCC[C@H]1[C@H]23"
  Assay Endpoint: "TGI"
  Reported Value: "> 100 µM"
- Compound: "CN(C)c1ccc([O-])cc1.CN(C)c1ccc([O-])cc1.CN(C)c1ccc([O-])cc1.CN(C)c1ccc([O-])cc1.[Ti+4]"
  Assay Endpoint: "TGI"
  Reported Value: "> 100 µM"
- Compound: "C1C[OH+]CC[OH+]CCNCC[OH+]CC[OH+]CCN1.[Cl-].[Pt+4]"
  Assay Endpoint: "TGI"
  Reported Value: "> 100 µM"
- Compound: "COc1cc(/C=C/C(=O)c2c(=O)o[nH][n+]2-c2ccccc2)ccc1[O-]"
  Assay Endpoint: "TGI"
  Reported Value: "12.4 µM"
- Compound: "CCCn1c(SC)nc(COC(=O)NC)c1COC(=O)NC"
  Assay Endpoint: "TGI"
  Reported Value: "> 100 µM"
- Compound: "CCCCc1c2c(nc3c1CCc1cc4cc5c(nc4nc1-3)-c1nc3c(c(CCCC)c1CC5)CCCC3)CCCC2"
  Assay Endpoint: "TGI"
  Reported Value: "> 100 µM"
- Compound: "Oc1cc(O)c(Oc2cccc(O)c2O)c(O)c1"
  Assay Endpoint: "TGI"
  Reported Value: "> 100 µM"
- Compound: "N=c1oc2ccc3ccccc3c2cc1C(N)=O"
  Assay Endpoint: "TGI"
  Reported Value: "> 100 µM"
- Compound: "CCCc1c(CC)c(=N)c2ccccc2n1C"
  Assay Endpoint: "TGI"
  Reported Value: "> 100 µM"
- Compound: "CCc1n(Cc2ccc3ccccc3n2)cc[n+]1Cc1ccc2ccccc2n1"
  Assay Endpoint: "TGI"
  Reported Value: "0.695 µM"

###

- System: SK-MEL-28 melanoma
- Measurement Notes: NCI tumour cell line growth inhibition, 48 h
Listing of recorded GI50 by entry.

- Compound: "Cc1ccc(S(=O)(=O)NCCNC2=CC(=O)c3nc4ccccc4c4ccnc2c34)cc1"
  GI50: "26.7 µM"
- Compound: "O=C(/C=C/C12c3ccccc3C(c3ccccc31)C1C(=O)N(c3ccccc3)C(=O)C12)c1ccccc1 (centres undefined)"
  GI50: "2.48 µM"
- Compound: "O=C([CH-]C(=O)c1ccccc1)c1ccccc1.O=C([CH-]C(=O)c1ccccc1)c1ccccc1.O=C([CH-]C(=O)c1ccccc1)c1ccccc1.[Nd+3].[OH3+]"
  GI50: "7.74 µM"
- Compound: "Oc1ccc(C(c2ccc(O)cc2)c2ccc(Cl)cn2)cc1"
  GI50: "28 µM"

###

Listing of recorded log10 of TGI by entry.
- System: SF-539 CNS
- Measurement Notes: NCI tumour cell line growth inhibition, 48 h
Assay Endpoint: log10 of TGI (log10 of the value in µM)

- Molecule: "CCc1n(Cc2ccc3ccccc3n2)cc[n+]1Cc1ccc2ccccc2n1"
  log10 of TGI: 1.20
- Molecule: "CN(C)CCNC(=O)c1ccc(NCCCN(C)CCCNc2ccc3c(=O)n(CCN(C)C)c(=O)n4c5ccccc5c(=O)c2c34)c2c(=O)c3ccccc3[nH]c12"
  log10 of TGI: 0.39
- Molecule: "O=C(O)C1C2CCC(O2)C1C(=O)N1CCCCC1 (stereo not drawn)"
  log10 of TGI: 1.37
- Molecule: "CN1CCN(c2c(Cl)cc(Cl)c3[nH]c4ccccc4c(=O)c23)CC1"
  log10 of TGI: 1.18
- Molecule: "C/C(=N\\O)c1cccc(Nc2cc(-n3ccnn3)c3ccccc3n2)c1"
  log10 of TGI: 1.64
- Molecule: "O=C(/C=C/C12c3ccccc3C(c3ccccc31)C1C(=O)N(c3ccccc3)C(=O)C12)c1ccccc1 (stereo not drawn)"
  log10 of TGI: 0.71
- Molecule: "COc1ccc(N(C)C(=O)N(C)c2ccc([N+](=O)[O-])cc2)cc1"
  log10 of TGI: 1.98
- Molecule: "COc1cc(/C=C\\c2ccc(C)cc2)cc(OC)c1OC"
  log10 of TGI: -1.66
